System: L1210 leukemia ip in BDF1 mice, survival T/C
experimental protocol: NCI In Vivo Anticancer Drug Screen. Data for tumor model L1210 Leukemia (intraperitoneal) in B6D2F1 (BDF1) mice
run conditions: endpoint: mean survival time; dose: 400.0 mg/kg/injection; schedule: Q04DX003 (ip); vehicle: saline with Tween-80; higher = longer survival
Toxic doses and inconclusive results are not listed.
Below: a set of entries, each annotated with reported T/C.

# molecule, target system, T/C
data = [
    ("Oc1cccnc1CN1CCOCC1", "L1210 leukemia ip in BDF1 mice, survival T/C", "100 % of control"),
    ("CC(=O)NNC(=O)c1ccccc1", "L1210 leukemia ip in BDF1 mice, survival T/C", "101 % of control"),
    ("COc1ccc(C(=O)Nc2ccccc2)cc1[N+](=O)[O-]", "L1210 leukemia ip in BDF1 mice, survival T/C", "101 % of control"),
    ("Cc1ccc(S(=O)(=O)N/N=C(/c2ccccc2)c2cccs2)cc1", "L1210 leukemia ip in BDF1 mice, survival T/C", "96 % of control"),
    ("Cc1ccc(S(=O)(=O)N(C)c2ccc(C#N)c3ccccc23)cc1", "L1210 leukemia ip in BDF1 mice, survival T/C", "90 % of control"),
    ("CCC(N)(CO)CO", "L1210 leukemia ip in BDF1 mice, survival T/C", "95 % of control"),
    ("CCCOC(c1ccc2c(c1)OCO2)C(C)Br (stereo not given)", "L1210 leukemia ip in BDF1 mice, survival T/C", "94 % of control"),
    ("CC(=O)Nc1ccc(/C=C/c2cc[n+](C)cc2)cc1", "L1210 leukemia ip in BDF1 mice, survival T/C", "102 % of control"),
    ("OC1CCC2CCC(O)CC2C1 (stereo not given)", "L1210 leukemia ip in BDF1 mice, survival T/C", "92 % of control"),
    ("CCc1occ(C(=O)OC)c1C(=O)OC", "L1210 leukemia ip in BDF1 mice, survival T/C", "104 % of control"),
]
